target: T1, recombinant huCD30 (R&D) (Homo sapiens, UniProt P28908); assay: SPR; BIAcore 3000, 25°C; recombinant huCD30 amine-coupled on a CM5 chip; mAbs as analyte in serial 1:2 dilutions from 20 nM; 10 mM Hepes pH 7.4, 150 mM NaCl, 0.005% P20, 0.1% BSA; 1:1 Langmuir fit; conditions: both partners purified
T1 construct: recombinant human CD30 from R&D; also called rhCD30; huCD30 protein; source: bought: R&D
T1 sequence (P28908 19-385): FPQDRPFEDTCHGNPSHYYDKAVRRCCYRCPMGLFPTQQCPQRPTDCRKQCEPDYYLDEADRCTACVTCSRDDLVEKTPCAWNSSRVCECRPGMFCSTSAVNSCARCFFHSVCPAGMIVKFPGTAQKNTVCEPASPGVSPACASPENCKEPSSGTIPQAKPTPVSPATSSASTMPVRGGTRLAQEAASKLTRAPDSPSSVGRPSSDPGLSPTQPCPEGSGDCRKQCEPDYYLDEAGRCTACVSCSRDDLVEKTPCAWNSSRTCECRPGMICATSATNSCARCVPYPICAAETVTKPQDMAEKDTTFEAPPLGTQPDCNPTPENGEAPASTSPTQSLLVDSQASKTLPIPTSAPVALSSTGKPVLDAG
Exercise: state measured Kd for each of the binders provided.
Number only, in nM; omit the unit.

Give a short answer stating reported Kd for anti-CD30 mAb 13H1 (antibody, V domains shown, also called clone 13H1; source: mouse hybridoma (custom generated by Genscript), serum-free supernatant, purified (rProtein A GraviTrap)) VH: QVQLQQSGTELVKPGASVKLSCKASGHTFTSYWMHWVKQRPGQGLEWIGNINPSNGGTNYNEKFKSKATLTVDKSSSTAYMQLSSLTSEDSAVYYCARRGYYGSSSYWSFDVWGTGTTVTVSS VL: DIVMTQTPKSMSMSVGERVTLSCKASENVGTYVSWYQQKPEQSPKVLIYGASNRFTGVPDRFTGSGSATDFTLTISSVQTEDLADYHCGQSYSYPLTFGAGTKLELK .
0.149

Using known records, supply Kd for anti-CD30 mAb 8D10 (antibody, V domains shown, also called clone 8D10; source: mouse hybridoma (custom generated by Genscript), serum-free supernatant, purified (rProtein A GraviTrap)) VH: QVQLQESGTELVKPGASVKLSCKASGYTFTSYWMHWMKQRPGQGLEWIGNINPSNGGTNYNEKFKNKATLTVDKSSSTAYMQLSSLTSEDSAVYYCARRDYYYGSSYGFDVWGTGTTVTVSS VL: DIVMTQSPASQSASLGESVTITCLASQTIGTWLAWYQQKPGKSPQFLIYAATSLADGVPSRFSGSGSGTKFSFKISSLQAEDFVSYYCQQLYSTPFTFGGGTKLEIK
0.0592

Determine from records and report Kd for anti-CD30 mAb 12B1 (antibody, V domains shown, also called clone 12B1; source: mouse hybridoma (custom generated by Genscript), serum-free supernatant, purified (rProtein A GraviTrap)) VH: EVKLEESGTELVKPGASVKLSCKASGYTFTSYWMHWVKQRPGQGLEWIGNINPTNGGTNYNEKFKSKATLTVDKSSRTAYMQLSSLTSGDSAVYYCARRDFITTSGFAYWGQGTLVTVSA VL: DIVMTQTTASLSTSVGETVTITCRASGNLHSYLTWYQQKQGKSPQLLVYNAKTLADGVPSRFSGSGSGTQYSLKIDSLQPEDFGSYYCQHFWTTPFTFGSGTKLEIK
0.199

Look up and report measured Kd for this entry: anti-CD30 mAb 15B8 (antibody, V domains shown, also called clone 15B8; source: mouse hybridoma (custom generated by Genscript), serum-free supernatant, purified (rProtein A GraviTrap)) VH: QVQLEQSGTELVKPGASVKLSCKASGYTFTSYWMHWVKQRPGQGLEWIGNINPSNGGTNYNEKFKSKATLTVDKSSSTAYMQLSSLTSEDSAIYYCARRNNYYASSPFAYWGQGTLVSVSA VL: DIVMTQTPASLSASVGETVTITCRASGNIHNYLAWYQQKQGKSPQLLVYNAKTLADGVPSRFSGSGSGTQYSLKINSLQPEDFGSYYCQHFWSTPFTFGSGTKLEIK
0.978

Hello, the source for this data is paper PMC10461807, in case you need it.
